- Tested on: NCI-H1048 cells
- assay_remarks: MTT proliferation assay, NCI-H1048;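 also: Dose-response in 96-well plates over 8 or 10 concentration points, with exposure spanning 3-4 cell doublings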
- Assay type: cell-based
- run_conditions: 5 days compound exposure, 1:3 serial dilution starting at 10 μM
*1 amine or outer side, *2 acyl side, *3 side chain or, on linkers, in order; H or OH if unused. Where a SMILES comes first, the peptide text is derived from it. Bridges are numbered along the chain shown (N, C = ends). [ ]: non-standard residue; d: D form. The star is where a group is joined. X123 = CN([C@@H](Cc1cc(Cl)ccc1-c1ccc[nH]c1=O)C(=O)[*:2])[*:1]; X189 = CN([C@@H](Cc1cc(Cl)ccc1-c1ccc2scnc2c1)C(=O)[*:2])[*:1]; NMehhhLys(Me) = CN([C@@H](CCCCCCCN(C)[*:3])C(=O)[*:2])[*:1]; X28 = CN([C@@H](Cc1cc(Cl)cnc1OC1CCC1)C(=O)[*:2])[*:1]; cBuCO(3,3-F2-1-CF3) = O=C(C1(C(F)(F)F)CC(F)(F)C1)*; X161 = Cc1ccc(F)cc1C[C@@H](C(=O)[*:2])N(C)[*:1]; Pro(trans-4-F) = O=C(O)[C@@H]1C[C@@H](F)CN1; Gly(cPr) = N[C@H](C(=O)O)C1CC1
Flag rule - GI50 less than 40 nM flags T; the remaining entries get F.

Recorded results for 2 compounds are shown here.
CC(C)C[C@@H]1NC(=O)[C@@H](NC(=O)[C@@H](NC(=O)[C@@H]2C[C@@H](F)CN2C(=O)C2(C(F)(F)F)CC2)C2CC2)CC=CCCCCN(C)C(=O)[C@H](Cc2cc(Cl)ccc2Cl)N(C)C1=O ... F
CC(C)C[C@@H]1NC(=O)[C@@H](N(C)C(=O)[C@@H](NC(=O)[C@@H]2C[C@@H](F)CN2C(=O)C2(C(F)(F)F)CC(F)(F)C2)C2CC2)CCCCCCCN(C)C(=O)[C@H](Cc2cc(Cl)ccc2-c2ccc[nH]c2=O)N(C)C1=O [Example 208] ({cBuCO(3,3-F2-1-CF3)}-[Pro(trans-4-F)][Gly(cPr)][NMehhhLys(Me)]L[X123]; lactam 3-C) ... F

Lab log: compare recorded GI50 with 40 nM; is it strictly lower for Cc1ccc(F)cc1C[C@H]1C(=O)N(C)CCCCCCC[C@H](N(C)C(=O)[C@@H](NC(=O)[C@@H]2C[C@@H](F)CN2C(=O)C2(C(F)(F)F)CC(F)(F)C2)C2CC2)C(=O)N[C@@H](CC(C)C)C(=O)N1C [Example 123] ({cBuCO(3,3-F2-1-CF3)}-[Pro(trans-4-F)][Gly(cPr)][NMehhhLys(Me)]L[X161]; lactam 3-C) ?
T

Queued: CC(C)C[C@@H]1NC(=O)[C@@H](N(C)C(=O)[C@@H](NC(=O)[C@@H]2C[C@@H](F)CN2C(=O)C2(C(F)(F)F)CC(F)(F)C2)C2CC2)CCCCCCCN(C)C(=O)[C@H](Cc2cc(Cl)ccc2-c2ccc3scnc3c2)N(C)C1=O [Example 169] ({cBuCO(3,3-F2-1-CF3)}-[Pro(trans-4-F)][Gly(cPr)][NMehhhLys(Me)]L[X189]; lactam 3-C)
T

Queued: CC(C)C[C@@H]1NC(=O)[C@@H](N(C)C(=O)[C@@H](NC(=O)[C@@H]2C[C@@H](F)CN2C(=O)C2(C(F)(F)F)CC(F)(F)C2)C2CC2)CCCCCCCN(C)C(=O)[C@H](Cc2cc(Cl)cnc2OC2CCC2)N(C)C1=O [Example 140] ({cBuCO(3,3-F2-1-CF3)}-[Pro(trans-4-F)][Gly(cPr)][NMehhhLys(Me)]L[X28]; lactam 3-C)
F
